# ASSAY SYSTEM: DcitGLNT1 (Diaphorina citri, UniProt A0A2L0RID4)
# Sequence (A0A2L0RID4 1-508): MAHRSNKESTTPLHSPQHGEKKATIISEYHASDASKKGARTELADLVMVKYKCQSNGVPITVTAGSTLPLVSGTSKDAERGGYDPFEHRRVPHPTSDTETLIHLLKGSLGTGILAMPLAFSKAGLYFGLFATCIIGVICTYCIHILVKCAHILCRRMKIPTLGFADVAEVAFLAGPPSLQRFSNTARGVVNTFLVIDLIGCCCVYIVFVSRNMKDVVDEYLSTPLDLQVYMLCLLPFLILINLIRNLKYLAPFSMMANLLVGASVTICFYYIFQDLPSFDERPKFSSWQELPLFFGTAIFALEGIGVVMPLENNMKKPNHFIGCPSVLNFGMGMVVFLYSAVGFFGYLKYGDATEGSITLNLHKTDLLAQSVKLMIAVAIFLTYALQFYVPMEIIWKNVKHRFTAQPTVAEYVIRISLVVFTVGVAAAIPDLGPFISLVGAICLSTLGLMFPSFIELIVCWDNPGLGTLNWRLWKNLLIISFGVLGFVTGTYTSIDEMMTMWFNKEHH
# TEST METHOD NOTES: two-electrode voltage clamp, inward current in Xenopus oocytes
MEASURED ATTRIBUTE: pEC50
Reminder that pEC50 is minus the log10 of a molar concentration.

## Task Tell us which pEC50 value is on record for NC(=O)CC[C@H](N)C(=O)O [glutamine]
## Result 1.45

====

# ASSAY SYSTEM: PcitGLNT1 (Planococcus citri)
# TEST METHOD NOTES: cell-based
MEASURED ATTRIBUTE: pIC50
In simple prose, pIC50 is minus the logarithm base ten of a concentration in moles per litre.

## Task Read off the recorded pIC50 for N=C(N)NCCC[C@H](N)C(=O)O
## Result 2.60

====

# ASSAY SYSTEM: UniProt F8RL01
# Sequence (F8RL01 1-500): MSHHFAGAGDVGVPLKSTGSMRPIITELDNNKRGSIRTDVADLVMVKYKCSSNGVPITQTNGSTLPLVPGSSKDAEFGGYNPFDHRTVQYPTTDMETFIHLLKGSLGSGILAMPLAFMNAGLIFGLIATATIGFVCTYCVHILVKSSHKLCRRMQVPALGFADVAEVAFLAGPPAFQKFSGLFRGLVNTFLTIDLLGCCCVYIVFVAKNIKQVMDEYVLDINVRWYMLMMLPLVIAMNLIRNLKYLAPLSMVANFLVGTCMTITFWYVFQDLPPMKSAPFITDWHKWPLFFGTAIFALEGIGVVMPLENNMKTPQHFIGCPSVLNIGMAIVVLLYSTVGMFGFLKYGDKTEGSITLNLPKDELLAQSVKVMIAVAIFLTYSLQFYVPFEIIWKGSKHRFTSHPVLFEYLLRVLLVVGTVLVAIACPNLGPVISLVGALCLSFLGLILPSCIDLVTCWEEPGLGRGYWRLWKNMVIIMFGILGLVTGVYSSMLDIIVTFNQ
MEASURED ATTRIBUTE: pIC50
Please note pIC50 is a logarithmic value: minus log10 of concentration in mol/L. Answer with that number alone.

## Task Annotate the compound N=C(N)NCCC[C@H](N)C(=O)O [arginine] with its measured pIC50.
## Result 2.29

====

# ASSAY SYSTEM: PcitGLNT1 (Planococcus citri)
# Sequence (A0A2L0RIC1 1-502): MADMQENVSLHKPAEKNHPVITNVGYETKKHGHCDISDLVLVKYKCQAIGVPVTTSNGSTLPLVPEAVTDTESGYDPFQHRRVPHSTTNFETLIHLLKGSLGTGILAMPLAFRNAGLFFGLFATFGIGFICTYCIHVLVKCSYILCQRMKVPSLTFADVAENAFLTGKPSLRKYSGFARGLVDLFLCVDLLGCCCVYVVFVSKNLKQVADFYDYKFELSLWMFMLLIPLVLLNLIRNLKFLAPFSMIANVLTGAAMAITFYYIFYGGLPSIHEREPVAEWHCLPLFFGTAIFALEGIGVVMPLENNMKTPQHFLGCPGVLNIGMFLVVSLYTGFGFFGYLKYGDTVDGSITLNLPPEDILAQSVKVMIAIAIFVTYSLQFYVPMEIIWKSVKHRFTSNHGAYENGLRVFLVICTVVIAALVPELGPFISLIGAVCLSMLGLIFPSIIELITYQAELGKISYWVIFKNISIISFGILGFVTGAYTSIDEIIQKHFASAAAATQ
# TEST METHOD NOTES: two-electrode voltage clamp, inward current in Xenopus oocytes
MEASURED ATTRIBUTE: EC50 (µM)
The answer is to be given in µM; state only the numeric part.

## Task State EC50 (PcitGLNT1 (Planococcus citri)) of NC(=O)CC[C@H](N)C(=O)O [glutamine] .
## Result 2100

The values you see were collected from paper PMC10614625.
